- System: SR leukemia
- ASSAY_NOTES: NCI-60 one-dose screen, 48 h (100 = growth as untreated, 0 = no growth, -100 = all killed)
- ASSAY_CONDITIONS: 10 µM unless noted
- Procedure: Growth inhibition of the SR human tumor cell line is measured as a screen for anti-cancer activity. Cells are grown in 96 well plates and exposed to the test compound for 48 hours. Compounds are tested at a single concentration, which is 10^-5 M for most compounds. The reported endpoint is percent growth (GI% or GIPRCNT), where numbers from 0 - 100% represent growth inhibition, and numbers from -100% - 0 represent cell death. For example, a value of 40 represents 60% growth inhibition. […]
The panel holds about 83,000 compounds, 20% with a hit somewhere; the sample as a whole holds those more often. Activity calls are given as the source filed them. The calls were made as follows: active = growth percent below 10; inactive = the rest.
Could you please report measured growth for the items listed next?

// returns growth for `CC(C)[C@@H]1CC[C@@H]2[C@@H]1[C@H](OC(=O)/C=C/c1ccccc1)[C@]1(C(C)C)C[C@@H](OC(=O)CO)[C@@]2(C)O1` with SR leukemia; value = 41.8% (inactive)

// returns growth for `O=C(Nc1ccc(C2=NCCCN2)cc1)c1ccc(C(=O)Nc2ccc(C3=NCCCN3)cc2)nc1` with SR leukemia; value = 85.2% (inactive)

// returns growth for `Ic1ccccc1-c1ccccc1` with SR leukemia; value = 102% (inactive)

// returns growth for COc1c(C(NC(=O)c2ccccc2)c2sccc2C)cc(Cl)c2cccnc12 (stereo not given) with SR leukemia; value = 90% (inactive)

// returns growth for CC1(/C=N/NC(N)=S)NC(=O)NC1=O (stereo not given) with SR leukemia; value = 94.8% (inactive)

----------
- Tested on: CCRF-CEM leukemia
- ASSAY_NOTES: NCI-60 one-dose screen, 48 h (100 = growth as untreated, 0 = no growth, -100 = all killed)
- ASSAY_CONDITIONS: 10 µM unless noted
About 83,000 compounds went through this panel and 20% of them were active in at least one assay; those are over-represented in the sample as a whole.
Could you please report measured growth for the items listed next?
Please respond with the number in % and leave the unit unwritten.

compound `O=C(NC[C@H](O)CO)c1ccncc1Nc1ccc(I)cc1F` , growth observed: 102

compound `O=C1/C(=C\c2cccc(OCCCCCOc3ccc(Cl)cc3)c2)N=C2SCCCN12` , growth observed: 55.9

compound CC1(C=O)NC(=O)NC1=O (stereo not given) , growth observed: 95.7

compound `Cc1cc(NCC(=O)Nc2ccc(-c3nc4ccccc4s3)cc2)no1` , growth observed: 53.7

compound `NS(=O)(=O)c1ccc(CCN2C(=O)/C(=C\c3ccc(Cl)cc3)C=C2c2ccc3ccccc3c2)cc1` , growth observed: 106

compound `CC(C)[C@@H]1CC[C@]2(CO2)[C@@H]2C(=O)OCC(C(=O)O)=C[C@H]21` , growth observed: 0.852

compound `C=CC(=O)Nc1cc2c(Nc3ccc(F)c(Cl)c3)ncnc2cc1C#CC(C)(C)N1CCN(C)CC1` , growth observed: -11.5

compound `Cc1c(CN2CCN(C(=O)[C@H](C)O)CC2)sc2c(N3CCOCC3)nc(-c3cnc(N)nc3)nc12` , growth observed: 7.59

compound `O=C(NO)c1ccc(Cn2c(=O)n(CCc3ccccc3)c(=O)c3ccccc32)cc1` , growth observed: 4.6

compound `CCN1CCN(Cc2ccc(Cc3ncc(F)c(-c4cc(F)c5nc(C)n(C(C)C)c5c4)n3)nc2)CC1` , growth observed: 22.3

compound `Clc1ccc2c(NCCCNCc3ccc4c(c3)OCO4)ccnc2c1` , growth observed: 41.7

compound `O=C(Nc1ccc(C2=NCCCN2)cc1)c1ccc(C(=O)Nc2ccc(C3=NCCCN3)cc2)nc1` , growth observed: 107

compound CC(N)C(Cc1ccc(Cl)cc1)c1ccc(Cl)cc1 (stereo not given) , growth observed: 65.6

compound CC1(O)CCC2CC3OC3(C)CCC3OC3(C)C(O)CC1C2(C)C (stereo not given) , growth observed: 91.5

compound `Cn1ccnc1C(=O)/C=C/c1ccc(CC(=O)Nc2ccc(S(F)(F)(F)(F)F)cc2)cc1` , growth observed: 8.93

compound `COc1cc2nccc(Oc3ccc(NC(=O)Nc4cc(C)on4)c(Cl)c3)c2cc1OC` , growth observed: 22.3

compound `O=C(Nc1ccc(-c2ccnc(Nc3ccc(N4CCOCC4)cc3)n2)cc1)[C@@H]1CCCN1` , growth observed: 28.1

compound `COc1c(OCCCN2CCOCC2)ccc2c3n(c(=NC(=O)c4cnc(N)nc4)nc12)CCN3` , growth observed: 17.7

compound `O=C(Cn1c(=O)ccn(CCCCCCCCOc2ccc(Br)cc2)c1=O)Nc1ccc(Oc2ccc(Cl)cc2)cc1` , growth observed: 54.6

compound `O=C(NCCO)Nc1ccc(-c2nc(N3CCOCC3)c3cccn3n2)cc1` , growth observed: 27.4

compound `ClCc1ccc(-c2ccc(Cn3cnc4c(Cl)nc(Cl)nc43)cc2)cc1` , growth observed: -31.1

compound `O=C(c1c(F)ccc(NS(=O)(=O)N2CC[C@@H](F)C2)c1F)c1c[nH]c2ncc(-c3cnc(C4CC4)nc3)cc12` , growth observed: 47.6

compound `COc1cc(-c2nc(C(=O)NCC(=O)O)nn2-c2ccc(Cl)cc2)cc(OC)c1OC` , growth observed: 84.2

compound COC(=O)[C@H](Cc1ccc(O)cc1)NC(=O)[C@@H](OC)[C@@H]1Cc2cc3cc(OC4CC(OC5CC(O)C(O)C(C)O5)C(O)C(C)O4)c(C)c(O)c3c(O)c2C(=O)[C@H]1OC1CC(OC2CC(OC3CC(C)(O)C(O)C(C)O3)C(O)C(C)O2)C(O)C(C)O1 (stereo not given in full) , growth observed: 11.1

compound `COc1cc(NCCCN)c2ncccc2c1` , growth observed: 92.5
